The measurements presented in this section are drawn from patent US20220396627A1.

- assayed-system: Human Siglec-9-Fc (recombinant human Siglec-9 extracellular domain Q18-G348 fused to human IgG1 Fc) (human)
- Sequence (chain, as listed by the source limits assumed): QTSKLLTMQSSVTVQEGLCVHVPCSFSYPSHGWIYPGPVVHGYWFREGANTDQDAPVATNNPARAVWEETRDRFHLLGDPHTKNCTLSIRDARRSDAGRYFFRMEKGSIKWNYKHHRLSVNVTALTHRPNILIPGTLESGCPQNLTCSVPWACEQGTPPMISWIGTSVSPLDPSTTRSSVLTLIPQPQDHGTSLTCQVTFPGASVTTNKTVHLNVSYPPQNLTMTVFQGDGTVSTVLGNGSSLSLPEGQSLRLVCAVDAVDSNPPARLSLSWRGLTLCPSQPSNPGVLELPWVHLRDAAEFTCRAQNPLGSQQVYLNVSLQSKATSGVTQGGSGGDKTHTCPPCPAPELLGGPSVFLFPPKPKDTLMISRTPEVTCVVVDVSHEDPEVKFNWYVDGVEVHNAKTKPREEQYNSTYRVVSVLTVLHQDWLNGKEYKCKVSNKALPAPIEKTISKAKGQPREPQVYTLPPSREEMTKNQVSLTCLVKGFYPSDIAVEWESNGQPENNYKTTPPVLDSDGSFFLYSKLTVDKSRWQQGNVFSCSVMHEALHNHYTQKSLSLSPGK
- protocol-description: BLI binning, hSiglec-9-Fc on AHC sensor; competitor bound first (row): 13O18
property: maximum binding nm shift (nm)
Provide the reading as a plain figure in nm.

## Task State the recorded maximum binding nm shift for this entry: 9C15 (antibody, V domains shown) VH: QVQLQQPGAELVKPGASVKMSCKASGYTFTSYWITWLNQRPGQGLEWIGDIYPGSGGTNYNERFKSKATLTVDTSSSTAYMQLSSLTSEDSAVYYCARSGGWAMDYWGQGTSVTVSS VL: DIQMTQTTSSLSASLGDRVTISCRASQDISNYLNWYQQKPDGTVKLLIYYKSGLHSGVPSRFSGSGSGTDYSLTISNLEQEDIATYFCQQGNTLPFTFGGGTKLEIK
## Result 0.392

## Task And 12G23 (antibody, V domains shown) VH: EVQLQQSGPELVRPGASVKMSCKASGYTFTDYNMHWVKQSHGKSLEWIGYINPNNGGTSYNQKFKGKATLTVNKSSSTAYMELRSLTSDDSAVYYCAREGYGNYPFYWGQGTTLTVSS VL: DIVLTQSPASLAVSLGQRVTISCRGSESVEYYGTSLMQWYQQKPGQPPKLLIYAASNVESGVPARFSGSGSGTDFSLNIHPVEEDDIAMYFCQQDRKVPYTFGGGTKLEIK ?
## Result 0.011

## Task Next binder up: 9D21 (antibody, V domains shown) VH: QVQLKESGPGLVAPSQSLSITCTVSGFSLTRYGVSWVRQPPGKGLEWLGVIWGDGSTNYHSALISRLSISKDNSKSQVFLKLNSLQTDDTATYYCARPYYGFFDYWGQGTTLTVSS VL: SIVMTQTPKFLLVSAGDRVTITCKASQSVSNAVAWYQQKPGQSPKMLIYYASNRYTGVPDRFTGSGYGTDFTFTISTVQAEDLAVYFCQQDYSSPYTFGGGTKLEIK
## Result 0.495

## Task Repeat for the following binder: 12L19 (antibody, V domains shown) VH: QVTLKESGPGILQPSQTLSLTCSFSGFSLNTFGMAVGWIRQPSGKGLEWLAHIWWDDSYYFNPALRSRLTISKDTSKNQVFLTIANVDTADTATYYCTRIPDDYDDYAMDYWGQGTSVTVSS VL: DVVMTQTPLSLPVSLGDQASISCRSSQSLVHSNGNTYLHWYLQKPGQSPKLLVYKVSNRFSGVPDRFSGSGSGTDFTLKISRVEAEDLGVYFCSQNTHIPYTFGGGTKLEIK
## Result 0.202
